Ki data for ROCK I (AA 6-553) (Homo sapiens) follow.

MOLECULE	Ki
CC(=O)N1[C@H](C)CN(c2cccc(-c3c[nH]c4ncc(C(=O)OC(C)C)cc34)n2)C[C@@H]1C	< 500 nM
CC(=O)N1[C@H](C)CN(c2cccc(-c3c[nH]c4ncc(OCCN(C)C)cc34)n2)C[C@@H]1C	500 to 5000 nM
C[C@H](Nc1cccc(-c2c[nH]c3ncc(Cl)cc23)n1)c1ccccc1	500 to 5000 nM
Fc1cnc(-c2c[nH]c3ncc(Cl)cc23)nc1NC1CCCc2ccccc21 (centres unmarked)	500 to 5000 nM
O=C(O)c1ccc(NCc2ccccc2)nc1-c1c[nH]c2ncc(Cl)cc12	500 to 5000 nM
C=C/C=C/C(=O)Nc1cnc2[nH]cc(-c3cccc(N4C[C@@H](C)N(C(C)=O)[C@@H](C)C4)n3)c2c1	< 500 nM
Nc1ccc(-c2c[nH]c3ncc(-c4ccccc4)cc23)cc1	500 to 5000 nM
Fc1cnc(-c2c[nH]c3ncc(Cl)cc23)nc1NCC1CCCCC1	500 to 5000 nM

====

- TARGET_DESC: JAK2 (Homo sapiens, UniProt O60674)
- Sequence (O60674 whole entry, species assumed): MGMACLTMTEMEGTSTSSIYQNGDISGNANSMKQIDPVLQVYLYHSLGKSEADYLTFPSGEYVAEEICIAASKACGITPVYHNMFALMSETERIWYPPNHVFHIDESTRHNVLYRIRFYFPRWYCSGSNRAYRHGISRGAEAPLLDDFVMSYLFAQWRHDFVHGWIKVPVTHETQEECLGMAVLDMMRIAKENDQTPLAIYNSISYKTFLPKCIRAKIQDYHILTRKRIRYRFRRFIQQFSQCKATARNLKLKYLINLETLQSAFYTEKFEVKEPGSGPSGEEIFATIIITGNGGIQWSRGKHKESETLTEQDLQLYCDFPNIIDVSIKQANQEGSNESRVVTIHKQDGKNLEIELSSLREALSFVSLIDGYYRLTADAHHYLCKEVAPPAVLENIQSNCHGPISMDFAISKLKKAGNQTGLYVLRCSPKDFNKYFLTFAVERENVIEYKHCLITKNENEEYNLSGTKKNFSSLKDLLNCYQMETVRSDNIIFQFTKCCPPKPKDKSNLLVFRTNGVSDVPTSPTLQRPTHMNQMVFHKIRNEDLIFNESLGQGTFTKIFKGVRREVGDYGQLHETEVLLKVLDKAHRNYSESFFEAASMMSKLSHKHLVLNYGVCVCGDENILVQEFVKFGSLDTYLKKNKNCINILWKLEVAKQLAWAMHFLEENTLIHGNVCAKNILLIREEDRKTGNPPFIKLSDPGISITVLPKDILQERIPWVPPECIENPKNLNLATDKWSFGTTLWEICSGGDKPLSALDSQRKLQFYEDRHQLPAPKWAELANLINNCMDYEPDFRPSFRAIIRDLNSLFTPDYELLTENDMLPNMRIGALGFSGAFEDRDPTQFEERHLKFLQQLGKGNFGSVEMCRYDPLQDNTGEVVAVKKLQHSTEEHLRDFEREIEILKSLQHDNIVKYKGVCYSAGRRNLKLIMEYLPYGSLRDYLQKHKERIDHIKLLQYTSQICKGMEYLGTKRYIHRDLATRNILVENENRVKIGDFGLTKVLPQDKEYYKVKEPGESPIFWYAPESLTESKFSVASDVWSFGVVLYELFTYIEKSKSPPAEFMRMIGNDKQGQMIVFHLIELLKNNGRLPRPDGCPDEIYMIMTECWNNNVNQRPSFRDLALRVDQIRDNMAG
- TEST_METHOD_NOTES: JAK2 inhibition assay (radioactive enzyme assay, as for JAK3)
- Assay type: biochemical
- STUDY_CONDITIONS: average Ki if more than one value determined

SMILES_ENTRY	Ki
CC(=O)N1[C@H](C)CN(c2cccc(-c3c[nH]c4ncc(NC(=O)c5cscn5)cc34)n2)C[C@@H]1C	< 500 nM
COC(=O)c1ccc(-c2c[nH]c3ncc(Cl)cc23)nc1NCc1ccccc1	500 to 5000 nM
CC(=O)N1[C@H](C)CN(c2cccc(-c3c[nH]c4ncc(NC(=O)c5cnccn5)cc34)n2)C[C@@H]1C	< 500 nM

====

- TARGET_DESC: JAK2 (Homo sapiens, UniProt O60674)
- TEST_METHOD_NOTES: JAK2 inhibition assay (radioactive enzyme assay, as for JAK3)
- Format: biochemical
- STUDY_CONDITIONS: average Ki if more than one value determined
EXPERIMENTAL_ENDPOINT: Ki

COMPOUND	EXPERIMENTAL_ENDPOINT	RESULT
CC(=O)N1[C@H](C)CN(c2cccc(-c3c[nH]c4ncc(C(=O)OC(C)C)cc34)n2)C[C@@H]1C [Compound 53]	Ki	< 500 nM
O=C(O)c1ccc(NCc2ccccc2)nc1-c1c[nH]c2ncc(Cl)cc12 [Compound 44]	Ki	500 to 5000 nM
CC(C)CC(=O)N1CCN(c2cccc(-c3c[nH]c4ncc(Cl)cc34)n2)CC1 [Compound 89]	Ki	< 500 nM
Clc1cnc2[nH]cc(-c3ccccc3)c2c1 [Compound 183]	Ki	< 500 nM
CC(=O)N1[C@H](C)CN(c2cccc(-c3c[nH]c4ncc(C(=O)N5CCCCC5)cc34)n2)C[C@@H]1C [Compound 54]	Ki	500 to 5000 nM
CC(=O)N1[C@H](C)CN(c2cc(C(N)=O)cc(-c3c[nH]c4ncc(Cl)cc34)n2)C[C@@H]1C [Compound 97]	Ki	< 500 nM
CC(=O)N1[C@H](C)CN(c2cccc(-c3c[nH]c4ncc(NC(=O)C5CCCCC5)cc34)n2)C[C@@H]1C [Compound 158]	Ki	< 500 nM
CC(=O)N1CCCN(c2cccc(-c3c[nH]c4ncc(C)cc34)n2)CC1 [Compound 40]	Ki	< 500 nM
CC(=O)N1[C@H](C)CN(c2cccc(-c3c[nH]c4ncc(O)cc34)n2)C[C@@H]1C [Compound 77]	Ki	< 500 nM
